tested.system: BRAF^V600E protein (Homo sapiens, UniProt P15056, V600E)
Sequence (P15056 whole entry V600E): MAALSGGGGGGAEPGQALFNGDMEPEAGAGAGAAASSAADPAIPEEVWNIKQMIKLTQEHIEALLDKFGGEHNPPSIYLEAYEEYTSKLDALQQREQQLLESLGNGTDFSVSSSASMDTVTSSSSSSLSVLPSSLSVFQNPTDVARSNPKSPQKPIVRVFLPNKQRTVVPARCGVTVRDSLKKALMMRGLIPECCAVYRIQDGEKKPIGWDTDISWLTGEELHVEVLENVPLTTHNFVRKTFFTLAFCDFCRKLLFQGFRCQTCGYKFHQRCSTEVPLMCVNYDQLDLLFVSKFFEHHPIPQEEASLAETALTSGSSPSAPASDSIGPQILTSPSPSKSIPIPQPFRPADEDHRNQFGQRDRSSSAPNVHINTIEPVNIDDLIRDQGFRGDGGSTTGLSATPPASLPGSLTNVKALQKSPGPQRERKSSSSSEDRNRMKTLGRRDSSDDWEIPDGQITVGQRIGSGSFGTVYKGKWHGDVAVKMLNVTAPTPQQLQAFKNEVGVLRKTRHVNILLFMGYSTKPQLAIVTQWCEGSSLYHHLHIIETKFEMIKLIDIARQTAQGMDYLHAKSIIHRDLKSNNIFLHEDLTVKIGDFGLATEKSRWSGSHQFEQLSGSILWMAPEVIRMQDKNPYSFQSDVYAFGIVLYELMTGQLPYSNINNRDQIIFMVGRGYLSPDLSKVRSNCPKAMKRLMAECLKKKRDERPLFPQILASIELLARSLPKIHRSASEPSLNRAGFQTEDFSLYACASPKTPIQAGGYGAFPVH
assay.procedure: HiBiT cellular BRAF V600E degradation assay
Type: cell-based
measurement.setup: A375.10 cells (HiBiT tag knocked in at N-terminal of BRAF V600E), 24 h incubation; concentration at which 50% of total cellular BRAF V600E is degraded
test.readout: DC50 (nM)

{"columns": ["compound", "DC50 [nM]"],
 "data": [
  ["CCN(C)S(=O)(=O)Nc1ccc(F)c(C(=O)c2c[nH]c3ncc(-c4ccc(N5CCN(C(=O)CC6(O)CCN(c7ccc(NC8CCC(=O)NC8=O)cc7F)CC6)CC5)c(Cl)c4)cc23)c1F (centres unmarked)", 4.62],
  ["CCN(C)S(=O)(=O)Nc1ccc(F)c(C(=O)c2c[nH]c3ncc(-c4ccc(N5CCN(C(=O)CC6(O)CCN(c7ccc(NC8CCC(=O)NC8=O)cn7)CC6)CC5)nc4)cc23)c1F (centres unmarked)", 9.89],
  ["CCN(C)S(=O)(=O)Nc1ccc(F)c(C(=O)c2c[nH]c3ncc(-c4cnc(N5CCN(C(=O)CC6(O)CCN(c7ccc(NC8CCC(=O)NC8=O)cc7C(F)F)CC6)CC5)nc4)cc23)c1F (centres unmarked)", 3.8]
]}

(I) CCN(C)S(=O)(=O)Nc1ccc(F)c(C(=O)c2c[nH]c3ncc(-c4ccc(N5CCN(C(=O)CN6CCC(c7ccc(NC8CCC(=O)NC8=O)cc7)C(F)(F)C6)CC5)nc4)cc23)c1F (stereo in doubt)
(II) CCN(C)S(=O)(=O)Nc1ccc(F)c(C(=O)c2c[nH]c3ncc(-c4cnc(N5CCC(C(=O)N6CCC(c7ccc(NC8CCC(=O)NC8=O)cc7)CC6)CC5)nc4)cc23)c1F (centres unmarked) [Example 127]
// which entry reports the smaller DC50, I or II ? // respond with label for picked entry
I

----------
tested.system: BRAF^V600E protein (Homo sapiens, UniProt P15056, V600E)
assay.procedure: HiBiT cellular BRAF V600E degradation assay
Format: cell-based
measurement.setup: A375.10 cells, 24 h incubation; Emax = amount of residual protein remaining in the cell after compound treatment
Description: DMEM no-phenol red medium supplemented with L-glutamine was purchased from (Corning). Fetal bovine serum (FBS) was purchased from Gibco (Grand Island, NY, USA). Nano-Glo® HiBiT Lytic Assay Buffer & Reagents were purchased from Promega (Madison, WI, USA). […] Prior to the assay, the A375.10 cell line is maintained in DMEM no-phenol red medium supplemented with 10% fetal bovine serum (FBS). […] Finally, HiBiT luminescence signal was acquired on EnVision™ Multilabel Reader (PerkinElmer, Santa Clara, CA, USA). […]
test.readout: HiBit 24 h Emax (%)

(a) CCN(C)S(=O)(=O)Nc1ccc(F)c(C(=O)c2c[nH]c3ncc(-c4cnc(N5CCN(C(=O)CN6CCN(c7ccc(NC8CCC(=O)NC8=O)cc7)CC6)CC5)nc4)cc23)c1F (stereo not shown) [Example 19]
(b) CCN(C)S(=O)(=O)Nc1ccc(F)c(C(=O)c2c[nH]c3ncc(-c4cnc(N5CCN(C(=O)CC6CCC(c7ccc(NC8CCC(=O)NC8=O)cc7)CC6)CC5)nc4)cc23)c1F (single isomer, unassigned) [Example 36]
Form field 'greater HiBit 24 h Emax' accepts a or b ; which applies? // respond with label for picked entry
b
(b: 16.12%, a: 11.26%)

(a) CCN(C)S(=O)(=O)Nc1ccc(F)c(C(=O)c2c[nH]c3ncc(-c4ccc(N5CCN(C(=O)CN6CCC(c7ccc(O[C@@H]8CCC(=O)NC8=O)cc7)CC6)CC5)nc4)cc23)c1F [Example 74]
(b) CCN(C)S(=O)(=O)Nc1ccc(F)c(C(=O)c2c[nH]c3ncc(-c4ccc(CN5CCN(CC(=O)N6CCC(c7ccc(NC8CCC(=O)NC8=O)cc7)CC6)CC5)cc4)cc23)c1F.O=C(O)C(F)(F)F (stereo not shown) [Example A21]
Form field 'greater HiBit 24 h Emax' accepts a or b ; which applies? // respond with label for picked entry
b
(b: 13%, a: 9.07%)

----------
tested.system: BRAF^V600E protein (Homo sapiens, UniProt P15056, V600E)
assay.procedure: HiBiT cellular BRAF V600E degradation assay
Format: cell-based
measurement.setup: A375.10 cells, 24 h incubation; Emax = amount of residual protein remaining in the cell after compound treatment; read-out: HiBit 24 h Emax
test.readout: Emax (%)

Check out these entries, answers already filled in.
{"columns": ["molecule", "numeric.readout"],
 "data": [
  ["CCN(C)S(=O)(=O)Nc1ccc(F)c(C(=O)c2c[nH]c3ncc(-c4ccc(N5CCN(C(=O)CC6(O)CCN(c7ccc(NC8CCC(=O)NC8=O)cc7)CC6)CC5)nc4)cc23)c1F (stereo not shown) [Example 76]", 14.2],
  ["CCN(C)S(=O)(=O)Nc1ccc(F)c(C(=O)c2c[nH]c3ncc(-c4cnc(N5CCN(C(=O)CC6CCN(c7ccc(NC8CCC(=O)NC8=O)cc7)CC6)CC5)nc4)cc23)c1F (stereo not shown) [Example 31]", 21.2]
]}

(1) CCN(C)S(=O)(=O)Nc1ccc(F)c(C(=O)c2c[nH]c3ncc(-c4cnc(N5CCN(C(=O)CN6CCC(c7ccc(NC8CCC(=O)NC8=O)cc7)CC6)CC5)nc4)cc23)c1C (stereo not shown) [Example 123]
(2) CCN(C)S(=O)(=O)Nc1ccc(F)c(C(=O)c2c[nH]c3ncc(-c4cnc(N5CCN(C(=O)C(C)(C)N6CCC(c7ccc(NC8CCC(=O)NC8=O)cc7)CC6)CC5)nc4)cc23)c1F (stereo not shown) [Example A55]
(3) CCN(C)S(=O)(=O)Nc1ccc(F)c(C(=O)c2c[nH]c3ncc(-c4cnc(N5CCC(NC(=O)N6CCC(c7ccc(NC8CCC(=O)NC8=O)cn7)CC6)CC5)nc4)cc23)c1F (stereo not shown) [Example A40]
(4) CCN(C)S(=O)(=O)Nc1ccc(F)c(C(=O)c2c[nH]c3ncc(-c4cnc(N5CCN(C(=O)CC6(O)CCN(c7ccc(NC8CCC(=O)NC8=O)cc7F)C6)CC5)nc4)cc23)c1F (stereo not shown) [Example 51]
Ascending by Emax, please. Output the labels ranked as instructed.
4, 1, 3, 2

(I) CCN(C)S(=O)(=O)Nc1cccc(C(=O)c2c[nH]c3ncc(-c4cnc(N5CCN(C(=O)CC6CCN(c7ccc(NC8CCC(=O)NC8=O)cc7C(F)(F)F)CC6)CC5)nc4)cc23)c1F (stereo not shown) [Example 106]
(II) CCN(C)S(=O)(=O)Nc1ccc(F)c(C(=O)c2c[nH]c3ncc(-c4cnc(N5CCC(NC(=O)CN6CCC(c7ccc(NC8CCC(=O)NC8=O)cc7)CC6)CC5)nc4)cc23)c1F (stereo not shown) [Example A62]
Form field 'greater Emax' accepts I or II ; which applies? // respond with label for picked entry
II
(II: 18%, I: 11.5%)

----------
tested.system: BRAF^V600E protein (Homo sapiens, UniProt P15056, V600E)
assay.procedure: HiBiT cellular BRAF V600E degradation assay
Assay type: cell-based
measurement.setup: A375.10 cells, 24 h incubation; Emax = amount of residual protein remaining in the cell after compound treatment; read-out: HiBit 24 h Emax
test.readout: Emax (%)

(a) CC(C)S(=O)(=O)Nc1ccc(F)c(C(=O)c2c[nH]c3ncc(-c4ccc(N5CCN(C(=O)CN6CCC(c7ccc(OC8CCC(=O)NC8=O)cc7)CC6)CC5)nc4)cc23)c1F (centres unmarked)
(b) CC(C)S(=O)(=O)Nc1ccc(F)c(C(=O)c2c[nH]c3ncc(-c4ccc(N5CCN(C(=O)CN6CCC(c7ccc(C8CCC(=O)NC8=O)cc7F)CC6)CC5)nc4)cc23)c1F (centres unmarked)
(c) CCN(C)S(=O)(=O)Nc1ccc(F)c(C(=O)c2c[nH]c3ncc(-c4ccc(N5CCN(C(=O)CC6(O)CCN(c7ccc(NC8CCC(=O)NC8=O)cn7)CC6)CC5)cc4)cc23)c1F (centres unmarked)
List by increasing Emax. Output the labels ranked as instructed.
b, a, c
(b: 2.65%, a: 9.56%, c: 22.2%)

(P) CCN(C)S(=O)(=O)Nc1ccc(F)c(C(=O)c2c[nH]c3ncc(-c4ccc(N5CCN(C(=O)CC6(O)CCN(c7ncc(NC8CCC(=O)NC8=O)cc7F)CC6)CC5)cc4)cc23)c1F (centres unmarked)
(Q) CCN(C)S(=O)(=O)Nc1cccc(C(=O)c2c[nH]c3ncc(-c4ccc(N5CCN(C(=O)CC6(O)CCN(c7ccc(NC8CCC(=O)NC8=O)cc7F)CC6)CC5)nc4)cc23)c1F (centres unmarked)
(R) CCN(C)S(=O)(=O)Nc1ccc(F)c(C(=O)c2c[nH]c3ncc(-c4ccc(N5CCN(C(=O)CCCN6CCC(c7ccc(OC8CCC(=O)NC8=O)cc7)CC6)CC5)nc4)cc23)c1F (centres unmarked)
Ascending by Emax, please. Output the labels ranked as instructed.
P, Q, R
